- Tested on: MOLM-13
- Design: species or system AML cell lines (8); Primary HTS, single concentration about 10 uM, Cell Titer Glo viability; log10 luminescence, per cent inhibition relative to cycloheximide control
- EXPERIMENTAL_CONTEXT: 72 h, relative to cycloheximide control, log10 luminescence; inhibitor
MOLM-13 %inh by entry:
Write it as a number; the unit % goes unstated.

Here's what some known entries look like.
smiles_repr=CC(C)(O)Cn1c(=O)c(Oc2ccc(F)cc2F)cc2cnc(NC3CCOCC3)nc21 endpoint="MOLM-13 %inh" unit_abbreviation=% numeric_result=1.601
smiles_repr=O=C1NC(=NCc2ccccc2)S/C1=C\c1ccc2ncccc2c1 endpoint="MOLM-13 %inh" unit_abbreviation=% numeric_result=18.77
smiles_repr=CS(=O)(=O)CCNCc1ccc(-c2ccc3ncnc(Nc4ccc(OCc5cccc(C(F)(F)F)c5)cc4)c3c2)o1 endpoint="MOLM-13 %inh" unit_abbreviation=% numeric_result=82.16

Ask: What does the record list as MOLM-13 %inh for `COc1ccc(N2Cc3cnc(Nc4ccccc4)nc3N([C@@H]3CC[C@@H](O)C3)C2=O)cc1` ?
Result: 15.09

###

EC50 listing for selected compounds.
- Tested on: M07e
- ASSAY: cells
- Design: species or system AML cell lines (8); Secondary HTS, 10-point dose-response in triplicate, Cell Titer Glo viability, four-parameter fit EC50
- EXPERIMENTAL_CONTEXT: M-07e, 72 h, read-out: M07e

Below, 4 compounds whose answers are already recorded.
compound="COC(=O)[C@H](CC(C)C)NC(=O)c1ccc(NCc2cnc[nH]2)cc1-c1cccc2ccccc12 [SJ000803715, GGTI-2147]" endpoint=EC50 result="> 10 µM"
compound="CCN1CCN(c2ccc(Nc3cc(N(C)C(=O)Nc4c(Cl)c(OC)cc(OC)c4Cl)ncn3)cc2)CC1 [NVP-BGJ398]" endpoint=EC50 result="> 10 µM"
compound="CS(=O)(=O)CCNCc1ccc(-c2ccc3ncnc(Nc4ccc(OCc5cccc(F)c5)c(Cl)c4)c3c2)o1 [LAPATINIB]" endpoint=EC50 result="> 10 µM"
compound="c1ccc(-c2nn3c(c2-c2ccnc4cc(OCCN5CCOCC5)ccc24)CCC3)nc1 [SJ000834150, LY2109761]" endpoint=EC50 result="> 10 µM"

Ask: Which measured EC50 value corresponds to COc1ccc(-c2cc3c(C)nc(N)nc3n([C@H]3CC[C@H](OCCO)CC3)c2=O)cn1 [SJ000784313, PF-04691502] ?
Result: > 10 µM

###

- Test system: CMS
- Parameters: species or system AML cell lines (8); Primary HTS, single concentration about 10 uM, Cell Titer Glo viability; log10 luminescence, per cent inhibition relative to cycloheximide control
- EXPERIMENTAL_CONTEXT: 72 h, relative to cycloheximide control, log10 luminescence; inhibitor
ENDPOINT: CMS %inh

compound="c1ccc(COc2ccc(Nc3ncnc4ccc(-c5ccco5)cc34)cc2)cc1 [SJ000573171-1, C3157/71/1]" result=1.088%

Ask: Param readout = CMS %inh; param system = CMS; param query = NS(=O)(=O)c1cccc(-c2ccc3c(NC(=O)C4CC4)n[nH]c3c2)c1 [SJ000573205-1, VB100064-175A1] ; response: value
Result: -2.181%

Ask: Hi! What's the reported CMS %inh for COc1ccc(C2=C(c3cn(C)c4ccccc34)C(=O)NC2=O)cc1OC [SJ000581003-1] on CMS?
Result: 5.298%

Ask: Recorded CMS %inh for CN(C)CCCn1c(-c2nonc2N)nc2cnccc21 [SJ000573146-1, NB100580-138A1] with CMS, please?
Result: -2.565%
